test: soluble on expression in E. coli; label from the status in PepcDB or PDB records

# polymer-sequence, soluble on expression in E. coli
measured = [
    ("MQNDMSVVLRAGKLLIESGAEVYRVEDTMKHFAKALQIENFEAYVVSSSIIASGINRYGKQEAKVCNTDGVTANLGRLEAVNNLSRQIAKQDLVSPEEIVKQLDLIEHQKD", "not soluble"),
    ("MAHHHHHHMEPFTWLPAERYFHPLLNSIGAYQRYTYSLRAVCDAQRQKLLPGGDIEQNPGPIAVLQMNVSCLTPSKLATLMAQGADIIAIQETWKSSEQIASMHTGDHVLHAQSRIGKGSGVAVLVRKTLRSKRVPLTIPQHDTSLEVVVVQVALDQNRDLIVASTYMRPPPQVTQSFRRLVNCLPASSPLLLCGDFNMHHPQWEPFLESSPSEVAAEFLELCTDAGLTLVNTPGDITYARGTRERSCIDLTWSKHLTVSDCSASVSPLSDHYMLTFTLHQAFMDTIPSAPPSAPRTFYS", "not soluble"),
]
